# systemTested: type A insulin receptor, P06213
# protocolSummary: cell-based or functional assay
Ends that are not written are not given here.
endpointName: % activity in vitro (%)

Reference set (3 entries):
# binder, unitOfMeasurement, % activity in vitro
measured = [
    ("MIU-79 di-10K-SC: B1,A14-10K B^1(H5,10Y16L17R29)30-C^1des9-12-A^1(H8,K14,N18,21) (ligand, ends and bridges not checked) {PEG 10 kDa}-GPEHLCGAHLVDALYLVCGDRGFYFNKRTGYGSSSRRGIVDECCHRSCDLK(PEG 10 kDa)RLENYCN", "%", 1.7),
    ("DP3(TC): B^1(H5,10Y16L17K29)29:A^1(H8,N18,21) (ligand) chain 1: GPEHLCGAHLVDALYLVCGDRGFYFNKK chain 2: GIVDECCHRSCDLRRLENYCN", "%", 160),
    ("GPEHLCGAHLVDALYLVCGDRGFYFNKKGIVDECCHRSCDLRRLENYCN (ligand) [DP3(SC): B^1(H5,10Y16L17K29)29-A^1(H8,N18,21)]", "%", 0.03),
]

A = DP8Mut3KA14: B^1(H5,10Y16L17R29)30-C^1des9-12-A^1(H8,K14,N18,21) (ligand) GPEHLCGAHLVDALYLVCGDRGFYFNKRTGYGSSSRRGIVDECCHRSCDLKRLENYCN
B = di-10K-TC: B1,A14-10K B^1(H5,10Y16L17R29)29:A^1(H8K14N18,21) (ligand, ends and bridges not checked) chain 1: {PEG 10 kDa}-GPEHLCGAHLVDALYLVCGDRGFYFNKR chain 2: GIVDECCHRSCDLK(PEG 10 kDa)RLENYCN
Query: Choose between A and B : whose measured % activity in vitro value is numerically larger? Lab note: record the label of whichever item you select.
Reply: A
